PROTOCOL_NOTES: Singlet oxygen production, DPBF absorption attenuation under 660 nm light, methylene blue as reference
Format: physicochemical
EXPERIMENTAL_PARAMETERS: 5 μM in methanol
Reported singlet oxygen yield is given for each of the following compounds.
Keep the answer to the number alone.

Please review the entries below; each comes with its answer.
compound=CCN(CC)c1ccc2nc3c4ccccc4/c(=N\CCCCCCN)cc-3[se]c2c1 measured_metric="singlet oxygen yield" experimental_result=0.78
compound=CCN(CC)c1ccc2nc3c4ccccc4/c(=N\CCCCCCN)cc-3sc2c1 measured_metric="singlet oxygen yield" experimental_result=0.04
compound=CCN(CC)c1ccc2nc3c4ccccc4/c(=N\CCCCCC(=O)O)cc-3sc2c1 measured_metric="singlet oxygen yield" experimental_result=0.04

We next turn to a different compound, shown below.
Look up singlet oxygen yield for this compound: CCN(CC)c1ccc2nc3c4ccccc4/c(=N\CCCCCCNC(=O)CCCCC4SC[C@@H]5NC(=O)N[C@H]45)cc-3sc2c1 (stereo partly shown)
0.04

* * *

PROTOCOL_NOTES: UV absorption and fluorescence emission spectra in methanol
Assay type: physicochemical
EXPERIMENTAL_PARAMETERS: 5 μM in methanol
MEASURED_METRIC: maximum emission wavelength (nm)
Dear colleague, please return just the value in nm, with no unit written.

Some molecules with recorded maximum emission wavelength:
molecule=CCN(CC)c1ccc2nc3c4ccccc4/c(=N\CCCCCCN)cc-3[se]c2c1 experimental_result=702
molecule="CCN(CC)c1ccc2nc3c4ccccc4/c(=N\\CCCCCCNC(=O)CCCCC4SC[C@@H]5NC(=O)N[C@H]45)cc-3sc2c1 (stereo partly shown)" experimental_result=681
molecule=CCN(CC)c1ccc2nc3c4ccccc4/c(=N\CCCCCC(=O)O)cc-3sc2c1 experimental_result=694

Please look at the following molecule next.
Name the recorded maximum emission wavelength for CCN(CC)c1ccc2nc3c4ccccc4/c(=N\CCCCCC(=O)O)cc-3[se]c2c1 .
702

* * *

Quick reference for singlet oxygen yield among some compounds
PROTOCOL_NOTES: Singlet oxygen production, DPBF absorption attenuation under 660 nm light, methylene blue as reference
Assay type: physicochemical
EXPERIMENTAL_PARAMETERS: 5 μM in methanol
Method: Compounds 1-1 and 1-2 synthesized in the embodiment 1 are added to 3 mL methanol solvent with a final concentration of 5 μM. Next, 1, 3-diphenyl isobenzofuran (DPBF) is added, and adjusting the absorbance of DPBF in the solution to about 1.0. Then the ultraviolet absorption curve is measured. According to the changes of the absorbance value of DPBF at 411 nm after each irradiation (660 nm light source), the correlation curve between absorbance and time is drawn. […]
API note: the answer field is a bare number with no unit suffix.

Worked examples, 2 compounds total:
compound="CCN(CC)c1ccc2nc3c4ccccc4/c(=N\\CCCCCCNC(=O)Cc4c(C)n(C(=O)c5ccc(Cl)cc5)c5ccc(OC)cc45)cc-3sc2c1 [1-1-IMC]" experimental_result=0.04
compound="CCN(CC)c1ccc2nc3c4ccccc4/c(=N\\CCCCCC(=O)O)cc-3[se]c2c1 [2-2]" experimental_result=0.73

For the next question, use this compound.
// returns reported singlet oxygen yield for input CCN(CC)c1ccc2nc3c4ccccc4/c(=N\CCCCCCNC(=O)Cc4c(C)n(C(=O)c5ccc(Cl)cc5)c5ccc(OC)cc45)cc-3[se]c2c1 [2-1-IMC]
0.82

* * *

PROTOCOL_NOTES: UV absorption and fluorescence emission spectra in methanol
Assay type: physicochemical
EXPERIMENTAL_PARAMETERS: 5 μM in methanol
Protocol: Compounds 1-1 and 1-2 synthesized from embodiment 1 above are added to 3 mL methanol solvent with a final concentration of 5 μM and their UV absorption spectra and fluorescence emission spectra are measured. […] The instruments used are AgIIlent 8453 UV spectrophotometer and AgIIlent Cary EclIIpse fluorescence spectrophotometer. […]
MEASURED_METRIC: maximum absorption wavelength (nm)
# unit: nm | format: bare number

Some solved entries appear below for comparison.
molecule=CCN(CC)c1ccc2nc3c4ccccc4/c(=N\CCCCCCN)cc-3sc2c1 measured_metric="maximum absorption wavelength" units_of_measure=nm experimental_result=655
molecule=CCN(CC)c1ccc2nc3c4ccccc4/c(=N\CCCCCCNC(=O)Cc4c(C)n(C(=O)c5ccc(Cl)cc5)c5ccc(OC)cc45)cc-3sc2c1 measured_metric="maximum absorption wavelength" units_of_measure=nm experimental_result=654
molecule=CCN(CC)c1ccc2nc3c4ccccc4/c(=N\CCCCCCNC(=O)Cc4c(C)n(C(=O)c5ccc(Cl)cc5)c5ccc(OC)cc45)cc-3[se]c2c1 measured_metric="maximum absorption wavelength" units_of_measure=nm experimental_result=662
molecule=CCN(CC)c1ccc2nc3c4ccccc4/c(=N\CCCCCCN)cc-3[se]c2c1 measured_metric="maximum absorption wavelength" units_of_measure=nm experimental_result=661
molecule="CCN(CC)c1ccc2nc3c4ccccc4/c(=N\\CCCCCCNC(=O)CCCCC4SC[C@@H]5NC(=O)N[C@H]45)cc-3sc2c1 (stereo partly shown)" measured_metric="maximum absorption wavelength" units_of_measure=nm experimental_result=652

Recorded maximum absorption wavelength of CCN(CC)c1ccc2nc3c4ccccc4/c(=N\CCCCCC(=O)O)cc-3[se]c2c1 , please.
661

Can you look up the measured maximum absorption wavelength of CCN(CC)c1ccc2nc3c4ccccc4/c(=N\CCCCCC(=O)O)cc-3sc2c1 for me?
655

* * *

PROTOCOL_NOTES: UV absorption and fluorescence emission spectra in methanol
Assay type: physicochemical
EXPERIMENTAL_PARAMETERS: 5 μM in methanol
MEASURED_METRIC: maximum emission wavelength (nm)
Unit nm implied. Number only.

compound_structure=CCN(CC)c1ccc2nc3c4ccccc4/c(=N\CCCCCCN)cc-3sc2c1 experimental_result=694
compound_structure=CCN(CC)c1ccc2nc3c4ccccc4/c(=N\CCCCCCNC(=O)Cc4c(C)n(C(=O)c5ccc(Cl)cc5)c5ccc(OC)cc45)cc-3[se]c2c1 experimental_result=703

Shifting focus to the compound that follows.
Quick one: maximum emission wavelength for CCN(CC)c1ccc2nc3c4ccccc4/c(=N\CCCCCCNC(=O)Cc4c(C)n(C(=O)c5ccc(Cl)cc5)c5ccc(OC)cc45)cc-3sc2c1 ?
694
